The reported numbers originate from patent US20040121316A1.

target: recombinant HIV-1 protease (Human immunodeficiency virus type 1 group M subtype B); construct: Enzyme: recombinant HIV-1 protease expressed in E.Coli; purchased Bachem California, Inc. H-9040; host or cells: E. coli; experiment: biochemical; details: Ki, class symbols, Table 10
pKi: −log10 of the molar value.
recordedEndpoint: pKi

Worked examples follow.
- molecule: "CCCCOC(=O)C(C)OP(=O)(COc1ccc(CC(NC(=O)OC2COC3OCCC23)C(O)CN(CC(C)C)S(=O)(=O)c2ccc(OC)cc2)cc1)Oc1ccccc1 (centres unmarked) [Example 31c]"
  recordedEndpoint: "pKi"
  result: "10.00 to 11.00"
- molecule: "CCOC(=O)C(C)OP(=O)(Cc1ccc2c(c1)CCN(CC(NC(=O)OC1COC3OCCC13)C(O)CN(CC(C)C)S(=O)(=O)c1ccc(OC)cc1)C2)Oc1ccccc1 (centres unmarked)"
  recordedEndpoint: "pKi"
  result: "9.00 to 10.00"
- molecule: "COc1ccc(S(=O)(=O)N(CC(C)C)CC(O)C(Cc2ccc(OCP(=O)(O)Oc3ccccc3)cc2)NC(=O)OC2COC3OCCC23)cc1 (centres unmarked) [drawing 608 R1=OH R2=OPh]"
  recordedEndpoint: "pKi"
  result: "> 11.00"
- molecule: "CCOC(=O)C(C)NP(=O)(COc1ccc(CC(NC(=O)OC2COC3OCCC23)C(O)CN(CC(C)C)S(=O)(=O)c2ccc(OC)cc2)cc1)Oc1ccccc1 (centres unmarked) [Example 30b]"
  recordedEndpoint: "pKi"
  result: "> 11.00"
- molecule: "CCOC(=O)C(C)OP(=O)(COc1ccc(CC(NC(=O)OC2COC3OCCC23)C(O)CN(CC(C)C)S(=O)(=O)c2ccc(OC)cc2)cc1)Oc1cccc(CN)c1 [drawing 617 R1=OPb-m-CH2NH2 R2=(S)Lac-Et]"
  recordedEndpoint: "pKi"
  result: "10.00 to 11.00"
- molecule: "CCCCOC(=O)CNP(=O)(COc1ccc(CC(NC(=O)OC2COC3OCCC23)C(O)CN(CC(C)C)S(=O)(=O)c2ccc(OC)cc2)cc1)Oc1ccccc1 (centres unmarked) [drawing 614 R1=OPh R2=Gly-Bu]"
  recordedEndpoint: "pKi"
  result: "10.00 to 11.00"

Consider the molecule CCOC(=O)C(C)OP(=O)(COc1ccc(CC(NC(=O)OC2COC3OCCC23)C(O)CN(CC(C)C)S(=O)(=O)c2ccc(OC)cc2)cc1)Oc1ccccc1 (centres unmarked) [Example 31e] and give its measured pKi.
> 11.00

Consider the molecule CCOC(=O)COP(=O)(COc1ccc(CC(NC(=O)OC2COC3OCCC23)C(O)CN(CC(C)C)S(=O)(=O)c2ccc(OC)cc2)cc1)Oc1ccccc1 (centres unmarked) [drawing 615 R1=OPh R2=Glc-Et] and give its measured pKi.
> 11.00

Consider the molecule CCOC(=O)C(C)OP(=O)(COc1ccc2c(c1)CCN(CC(NC(=O)OC1COC3OCCC13)C(O)CN(CC(C)C)S(=O)(=O)c1ccc(OC)cc1)C2)Oc1ccccc1 (centres unmarked) and give its measured pKi.
9.00 to 10.00

Consider the molecule COC(=O)C(C)NP(=O)(COc1ccc(CC(NC(=O)OC2COC3OCCC23)C(O)CN(CC(C)C)S(=O)(=O)c2ccc(OC)cc2)cc1)Oc1ccccc1 (centres unmarked) [Example 30a] and give its measured pKi.
10.00 to 11.00

Consider the molecule CCCCOC(=O)C(C)NP(=O)(COc1ccc(CC(NC(=O)OC2COC3OCCC23)C(O)CN(CC(C)C)S(=O)(=O)c2ccc(OC)cc2)cc1)Oc1ccccc1 (centres unmarked) [Example 30d] and give its measured pKi.
10.00 to 11.00
